Origin of the recorded values: the supplement of paper PMC12667976

B1: library; numbered along this chain (parent)
chain: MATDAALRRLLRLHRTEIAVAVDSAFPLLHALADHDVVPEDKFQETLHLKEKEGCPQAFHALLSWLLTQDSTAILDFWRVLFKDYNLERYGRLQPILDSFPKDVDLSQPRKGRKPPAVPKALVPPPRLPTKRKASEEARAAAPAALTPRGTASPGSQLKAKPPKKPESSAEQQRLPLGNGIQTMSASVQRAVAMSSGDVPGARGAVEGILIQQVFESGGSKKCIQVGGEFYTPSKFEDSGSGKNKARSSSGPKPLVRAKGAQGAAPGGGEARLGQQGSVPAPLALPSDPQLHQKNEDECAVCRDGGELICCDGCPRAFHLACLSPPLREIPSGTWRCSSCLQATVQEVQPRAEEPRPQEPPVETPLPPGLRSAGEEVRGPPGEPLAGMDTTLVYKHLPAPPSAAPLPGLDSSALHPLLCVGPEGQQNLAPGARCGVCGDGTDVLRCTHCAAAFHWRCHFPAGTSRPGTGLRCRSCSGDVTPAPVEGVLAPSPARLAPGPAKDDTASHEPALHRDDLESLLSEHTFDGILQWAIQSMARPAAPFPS

Variants of: B1
Experiment: AIRE transcriptional activation functional score (insulin promoter-GFP; nonsense median 0, synonymous median 1) (normalised score); higher = higher AIRE activity (more reporter activation)
Conditions: with insulin promoter-GFP reporter in HEK293
Binary classification by AIRE transcriptional activation functional score, with 0.4 as an inclusive lower bound for MET; all other cases are NOT MET.

Mutation spec: D4A
Assigned category: MET

Incoming: Tell me whether AIRE transcriptional activation functional score is at least 0.4 here: I528H
Outgoing: NOT MET

Incoming: Could you tell me if the measured AIRE transcriptional activation functional score of G208W reaches 0.4 or more?
Outgoing: NOT MET

Incoming: Would you say E51R shows AIRE transcriptional activation functional score at minimum 0.4?
Outgoing: NOT MET

Incoming: Can T16C be said to have AIRE transcriptional activation functional score at or above 0.4?
Outgoing: NOT MET

Incoming: Determine whether this variant has AIRE transcriptional activation functional score no lower than 0.4: T344C
Outgoing: MET

Incoming: Is AIRE transcriptional activation functional score for G268A at or above 0.4?
Outgoing: MET

Incoming: Check the entry I528F : does AIRE transcriptional activation functional score equal or exceed 0.4?
Outgoing: MET

Incoming: Textbook exercise: given the entry G227H , state whether its AIRE transcriptional activation functional score is greater than or equal to 0.4.
Outgoing: NOT MET

Incoming: Dear colleague, could you confirm whether L7G has AIRE transcriptional activation functional score at or above 0.4?
Outgoing: NOT MET

Incoming: Please tell me: is the variant A61M at or over 0.4 in terms of AIRE transcriptional activation functional score?
Outgoing: MET

Incoming: Reported AIRE transcriptional activation functional score at or above 0.4? V206M
Outgoing: MET

Incoming: Is reported AIRE transcriptional activation functional score greater than or equal to 0.4 here: Q108N
Outgoing: MET

Incoming: Reported AIRE transcriptional activation functional score reaches at least 0.4 for G91H ?
Outgoing: NOT MET

Incoming: hey, is AIRE transcriptional activation functional score for this one >= 0.4? Q172Y
Outgoing: MET

Incoming: Could you verify whether the entry C299E shows AIRE transcriptional activation functional score of no less than 0.4?
Outgoing: NOT MET

Incoming: Confirm if AIRE transcriptional activation functional score reported for the variant T151W is 0.4 or above.
Outgoing: MET
